- target.or.system: CDK16 (human)
- assay: KINOMEscan competition binding
- experimental.context: compound 10.0 µM
test.readout: kinase still bound, per cent of control (%)
Give the value in % but do not write % after it.

// below: answered compounds
compound: COc1cc(N2CCC(C(N)=O)CC2)ccc1Nc1nc(N)c(Cl)c(Nc2ccccc2S(=O)(=O)C(C)C)n1
measured: 100
//
compound: CCc1nc(-c2cccc(C)c2)c(-c2ccnc(NC(=O)c3ccccc3)c2)s1
measured: 100
//
compound: O=c1[nH]c2ccccc2n1C1CCN(Cc2ccc(-c3nc4cc5[nH]cnc5cc4nc3-c3ccccc3)cc2)CC1
measured: 97

Please examine the following record next.
## Task # input compound: COc1ccc(N(C(=O)Oc2cc(C(=O)Nc3cccc(C(F)(F)F)c3)ccc2C)c2ccnc(Nc3ccc(N4CCN(C)CC4)cc3)n2)c(OC)c1 ; wanted: its kinase still bound, per cent of control
## Result 100
